Listing of recorded Kd by entry.
- System: HLA-A*02:19
- Procedure summary: IEDB peptide-MHC binding, purified MHC/direct/fluorescence; filed as Kd, often an IC50 or EC50 that approximates it; bounds were set here for any values at or beyond the usual limits of such assays
- Settings: source organism: Zaire ebolavirus

Solved cases (3 shown):
{"columns": ["Ordered residues", "System", "Property", "Meas value"],
 "data": [
  ["VLMKQIPIW", "HLA-A*02:19", "Kd", "≥ 20 µM"],
  ["TSACGIFLK", "HLA-A*02:19", "Kd", "≥ 20 µM"],
  ["TPSGKRLQI", "HLA-A*02:19", "Kd", "≥ 20 µM"]
]}

Let us move to another entry and its Kd.
Query string: What measured Kd is associated with NFFHASLAY on HLA-A*02:19?
Result string: ≥ 20 µM

====

- System: HLA-A*26:01
- Procedure summary: IEDB peptide-MHC binding, purified MHC/direct/fluorescence; filed as Kd, often an IC50 or EC50 that approximates it; bounds were set here for any values at or beyond the usual limits of such assays
- Settings: source organism: Vibrio cholerae V52
Property: Kd

Query string: Request the reported Kd associated with AADFPGIAR
Result string: ≥ 20 µM

====

Catalogue of pKd readings, one per entry.
- System: HLA-B*48:01
- Procedure summary: IEDB peptide-MHC binding, purified MHC/direct/fluorescence; filed as Kd, often an IC50 or EC50 that approximates it; bounds were set here for any values at or beyond the usual limits of such assays
- Settings: source organism: Camelpox virus M-96
pKd: −log10 of the molar value.

Query string: I have this sequence here, FVHTLLKTY , and I need its recorded pKd.
Result string: ≤ 4.70

Query string: What about this sequence? ATNDGLIKK
Result string: ≤ 4.70

Query string: Same lookup for LTFLHTLYK , please.
Result string: ≤ 4.70

====

- System: HLA-B*27:05
- Procedure summary: IEDB peptide-MHC binding, purified MHC/direct/fluorescence; filed as Kd, often an IC50 or EC50 that approximates it; bounds were set here for any values at or beyond the usual limits of such assays
- Settings: source organism: Campylobacter jejuni
pKd: −log10 of the molar value.
Property: pKd

Query string: Query (sequence): WFGHLASDW ; field requested: pKd
Result string: ≤ 4.70

====

- System: HLA-B*40:01
- Procedure summary: IEDB peptide-MHC binding, purified MHC/competitive/radioactivity; filed as Kd, often an IC50 or EC50 that approximates it; bounds were set here for any values at or beyond the usual limits of such assays
- Settings: source organism: Mammarenavirus guanaritoense
Property: Kd (µM)
// note: answer is a bare numeric in µM

Query string: So what does the record say about Kd for GEQVDLGPVL ?
Result string: 9.03

====

- System: HLA-A*26:01
- Procedure summary: IEDB peptide-MHC binding, purified MHC/direct/fluorescence; filed as Kd, often an IC50 or EC50 that approximates it; bounds were set here for any values at or beyond the usual limits of such assays
- Settings: source organism: Corynebacterium glutamicum
Property: Kd

Query string: What value of measured Kd is listed for WPALSSIAA ?
Result string: ≥ 20 µM

====

- System: HLA-A*69:01
- Procedure summary: IEDB peptide-MHC binding, purified MHC/direct/fluorescence; filed as Kd, often an IC50 or EC50 that approximates it; bounds were set here for any values at or beyond the usual limits of such assays
- Settings: source organism: Influenza A virus (A/chicken/Hunan/fg/2004(H5N1))
pKd: −log10 of the molar value.
Property: pKd

Query string: Value lookup for pKd; key = DTVNRTHQY
Result string: ≤ 4.70
